MEASURED ON: CaLsb1
TEST PROTOCOL: SPOT peptide array binding signal intensity (averaged, normalized) (arbitrary units (background-subtracted, floor 0; scale differs between SH3 domains)); higher = stronger binding of the SH3 domain to the peptide
MEASUREMENT NAME: SPOT peptide array binding signal intensity
Please reply with the number alone, leaving off any unit.

{"BINDER": "LLLLFVPDSPYDPAI", "OBSERVED RESULT": 1.5}
{"BINDER": "SSSSSPPPLPTRRDH", "OBSERVED RESULT": 19.5}

Here is another binder to look at.
Input line: Recorded SPOT peptide array binding signal intensity for "HRRRRVFSIPSLKSI" , please?
Output line: 2.5
